Molecular target: Dihydrofolate reductase (Homo sapiens)
Sequence (P00374 whole entry): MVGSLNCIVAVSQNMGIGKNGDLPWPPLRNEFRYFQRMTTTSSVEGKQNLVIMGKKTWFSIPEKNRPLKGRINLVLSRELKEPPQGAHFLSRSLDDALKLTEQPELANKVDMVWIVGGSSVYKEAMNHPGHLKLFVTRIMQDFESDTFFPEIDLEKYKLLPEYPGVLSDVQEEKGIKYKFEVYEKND
Assay: Inhibition of human recombinant DHFR using dihydrofolate as substrate by spectrophotometric analysis
result type: IC50
Provide the measurement as a number trailed by its unit.

Completed entries (count: 3):
[[record]]
compound = "CN(CC1CCc2nc(N)nc(N)c2N1)c1ccc(C(=O)N[C@@H](CCC(=O)O)C(=O)O)cc1 (mixture of isomers)"
subject_of_test = "Dihydrofolate reductase (Homo sapiens)"
result_type = "IC50"
value = "33 nM"

[[record]]
compound = "Nc1nc(N)c2nc(CNc3ccc(C(=O)N[C@@H](CCC(=O)O)C(=O)O)cc3)ccc2n1"
subject_of_test = "Dihydrofolate reductase (Homo sapiens)"
result_type = "IC50"
value = "18 nM"

[[record]]
compound = "CC(=O)N(CC1CCc2nc(N)nc(N)c2N1)c1ccc(C(=O)N[C@@H](CCC(=O)O)C(=O)O)cc1 (mixture of isomers)"
subject_of_test = "Dihydrofolate reductase (Homo sapiens)"
result_type = "IC50"
value = "33 nM"


Now look at this entry.
Notebook: pull reported IC50 for Dihydrofolate reductase (Homo sapiens), entry C=CCN1c2c(N)nc(N)nc2CCC1CN(C)c1ccc(C(=O)N[C@@H](CCC(=O)O)C(=O)O)cc1 (some centres undefined) 420 nM

###

Target: Dihydrofolate reductase (Homo sapiens)
Test: Inhibition of human recombinant DHFR using dihydrofolate as substrate by spectrophotometric analysis
What IC50 was measured for each of the following?
Answers are plain numbers, in nM.

Solved cases (2 shown):
[[record]]
molecule = "Cc1ccc(S(=O)(=O)N2c3c(N)nc(N)nc3CCC2CN(C)c2ccc(C(=O)N[C@@H](CCC(=O)O)C(=O)O)cc2)cc1 (some centres undefined)"
value = 1070

[[record]]
molecule = "Nc1nc(N)c2c(n1)CCC1CN(c3ccc(C(=O)N[C@@H](CCC(=O)O)C(=O)O)cc3)CN21 (some centres undefined)"
value = 800


Turning now to a further molecule:
# input molecule: CN(CC1CCc2nc(N)nc(N)c2N1C=O)c1ccc(C(=O)N[C@@H](CCC(=O)O)C(=O)O)cc1 (some centres undefined) ; wanted: its IC50 32

###

Exercise: state measured IC50 for each of the compounds provided.
System: HeLa
Assay: Antiproliferative activity against human HeLa cells after 48 hrs
Assay type: functional, cell-based
Give bare numbers, in nM.

In the examples that follow, each entry is paired with its recorded IC50.
[[record]]
compound = "CC(=O)N(CC1CCc2nc(N)nc(N)c2N1C=O)c1ccc(C(=O)N[C@@H](CCC(=O)O)C(=O)O)cc1 (some centres not stated)"
subject_of_test = "HeLa"
result_type = "IC50"
value = 41600

[[record]]
compound = "Cc1ccc(S(=O)(=O)N2c3c(N)nc(N)nc3CCC2CN(C)c2ccc(C(=O)N[C@@H](CCC(=O)O)C(=O)O)cc2)cc1 (some centres not stated)"
subject_of_test = "HeLa"
result_type = "IC50"
value = 434


Dear colleague, could you send me IC50 for each of the items below? Thanks.
1. Nc1nc(N)c2nc(CNc3ccc(C(=O)N[C@@H](CCC(=O)O)C(=O)O)cc3)ccc2n1
2. C=CCN1c2c(N)nc(N)nc2CCC1CN(C)c1ccc(C(=O)N[C@@H](CCC(=O)O)C(=O)O)cc1 (some centres not stated)
3. Nc1nc(N)c2c(n1)CCC1CN(c3ccc(C(=O)N[C@@H](CCC(=O)O)C(=O)O)cc3)CN21 (some centres not stated)
4. CN(CC1CCc2nc(N)nc(N)c2N1C=O)c1ccc(C(=O)N[C@@H](CCC(=O)O)C(=O)O)cc1 (some centres not stated)

1. 3
2. 227
3. 130
4. 6000

Source listed as ChEMBL document CHEMBL2150940.
